Quick list: IC50 per entry.
# system-under-test: human SLC6A19 and TMEM27 (Homo sapiens)
# Construct: expressed in transfected cells
# Sequence (Q695T7 1-634): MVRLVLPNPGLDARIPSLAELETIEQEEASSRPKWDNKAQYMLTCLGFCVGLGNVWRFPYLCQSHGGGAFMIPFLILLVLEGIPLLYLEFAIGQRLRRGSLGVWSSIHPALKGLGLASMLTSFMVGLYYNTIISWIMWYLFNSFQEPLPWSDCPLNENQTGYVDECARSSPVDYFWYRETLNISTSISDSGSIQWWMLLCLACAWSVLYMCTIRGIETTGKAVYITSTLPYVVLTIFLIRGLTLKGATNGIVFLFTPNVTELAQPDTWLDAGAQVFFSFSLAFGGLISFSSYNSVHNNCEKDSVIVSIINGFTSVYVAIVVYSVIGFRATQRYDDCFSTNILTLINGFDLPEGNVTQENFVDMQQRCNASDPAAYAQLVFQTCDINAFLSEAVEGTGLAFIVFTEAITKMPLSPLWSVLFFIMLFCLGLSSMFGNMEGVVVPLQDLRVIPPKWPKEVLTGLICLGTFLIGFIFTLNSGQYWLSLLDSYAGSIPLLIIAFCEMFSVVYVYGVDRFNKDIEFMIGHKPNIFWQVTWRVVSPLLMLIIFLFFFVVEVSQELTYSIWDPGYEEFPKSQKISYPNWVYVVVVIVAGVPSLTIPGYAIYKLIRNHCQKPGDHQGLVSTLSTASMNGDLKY
# Sequence (Q9HBJ8 15-222 partner): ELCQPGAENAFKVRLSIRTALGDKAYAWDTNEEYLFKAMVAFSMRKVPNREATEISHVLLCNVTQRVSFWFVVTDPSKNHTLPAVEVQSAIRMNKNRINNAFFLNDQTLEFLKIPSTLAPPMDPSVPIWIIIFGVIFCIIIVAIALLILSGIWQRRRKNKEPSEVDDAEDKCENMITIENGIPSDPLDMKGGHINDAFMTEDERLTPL
# assay-info: Radiolabelled (3H) leucine uptake in CHO cells with doxycycline-inducible expression of human SLC6A19 and TMEM27 (Example B-1)
# Assay type: cell-based
# conditions-used: CHO cells with doxycycline-inducible expression of human SLC6A19 and TMEM27, read-out: SLC6A19_Radioligand Uptake Assay IC50
Field: numeric (nM). Do not append units.

INSERT INTO results (compound, readout_label, observed) VALUES
  ('O=C(NCc1cc2cc(F)c(OCc3cscn3)cc2[nH]1)C(F)F [Compound 567]', 'IC50', 182);

# IC50 of Cc1cc(COc2cc3[nH]c(CNC(=O)[C@@H]4CCN4C)cc3cc2Cl)on1 [Compound 576] = 824

# IC50 of CC1(C(=O)NCc2cc3cc(C(F)(F)F)c(OCc4ccon4)cc3[nH]2)CC1 [Compound 59] = 214

# IC50 of O=C(NCc1cc2cc(F)c(OCc3cscn3)cc2[nH]1)C1(C(F)F)CC1 [Compound 569] = 121

---

Quick list: IC50 per entry.
# system-under-test: human SLC6A19 and TMEM27 (Homo sapiens)
# Construct: expressed in transfected cells
# assay-info: 13C6,15N-isoleucine uptake in CHO cells with doxycycline-inducible expression of human SLC6A19 and TMEM27, RapidFire mass spectrometry (Example B-2)
# Type: cell-based
# conditions-used: read-out: SLC6A19_RapidFire Uptake Assay IC50
Reply with a number, then the unit it belongs to.

INSERT INTO results (given_smiles, observed) VALUES
  ('COc1cc2cc(CNC(=O)C3(C)CC3)[nH]c2cc1CCc1ccon1', '113 nM'),
  ('CC1(C(=O)NCc2cc3cc(F)c(OCc4ccccn4)cc3[nH]2)CC1', '123 nM'),
  ('CC1(C(=O)NCc2cc3ccc(OCc4cnsc4)cc3[nH]2)CC1', '117 nM');

Moving on to another molecule below.
# IC50 of "CC1(C(=O)NCc2cc3cc(Cl)c(OCc4ccon4)cc3[nH]2)CC1" = 61 nM

---

# system-under-test: human SLC6A19 and TMEM27 (Homo sapiens)
# Construct: expressed in transfected cells
# assay-info: 13C6,15N-isoleucine uptake in CHO cells with doxycycline-inducible expression of human SLC6A19 and TMEM27, RapidFire mass spectrometry (Example B-2)
# Format: cell-based
# conditions-used: read-out: SLC6A19_RapidFire Uptake Assay IC50
readout-label: IC50 (nM)
Field: numeric (nM). Do not append units.

INSERT INTO measurements (compound, readout_label, value_units, observed) VALUES
  ('CC1(C(=O)NCc2cc3cc(Cl)c(OCC4CCC4)cc3[nH]2)CC1 [Compound 634]', 'IC50', 'nM', 168);

# IC50 of CC1(C(=O)NCc2cc3cc(Cl)c(CCc4cscn4)cc3[nH]2)CC1 [Compound 149] = 34

# IC50 of O=C(NCc1cc2cc(F)c(OCc3cscn3)cc2[nH]1)N1CCCC1 [Compound 114] = 158

---

# system-under-test: human SLC6A19 and TMEM27 (Homo sapiens, UniProt Q695T7)
# Construct: expressed in transfected cells
# Sequence (Q695T7 1-634): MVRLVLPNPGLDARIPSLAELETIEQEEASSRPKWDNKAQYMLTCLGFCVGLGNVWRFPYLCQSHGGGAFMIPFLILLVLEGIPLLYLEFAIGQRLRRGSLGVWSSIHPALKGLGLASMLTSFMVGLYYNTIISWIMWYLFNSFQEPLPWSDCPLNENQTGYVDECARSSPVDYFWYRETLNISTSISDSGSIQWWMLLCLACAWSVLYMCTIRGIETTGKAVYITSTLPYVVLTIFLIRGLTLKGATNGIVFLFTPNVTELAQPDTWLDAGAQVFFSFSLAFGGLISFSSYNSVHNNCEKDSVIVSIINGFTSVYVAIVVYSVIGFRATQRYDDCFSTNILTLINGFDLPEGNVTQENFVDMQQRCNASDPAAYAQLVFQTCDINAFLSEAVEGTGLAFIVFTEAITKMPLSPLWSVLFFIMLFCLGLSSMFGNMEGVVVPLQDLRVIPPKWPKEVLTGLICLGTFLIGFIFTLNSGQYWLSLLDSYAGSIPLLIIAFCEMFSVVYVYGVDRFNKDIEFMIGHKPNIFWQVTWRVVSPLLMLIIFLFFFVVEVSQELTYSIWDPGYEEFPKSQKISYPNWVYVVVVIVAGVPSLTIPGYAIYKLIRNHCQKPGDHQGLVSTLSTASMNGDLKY
# Sequence (Q9HBJ8 15-222 partner): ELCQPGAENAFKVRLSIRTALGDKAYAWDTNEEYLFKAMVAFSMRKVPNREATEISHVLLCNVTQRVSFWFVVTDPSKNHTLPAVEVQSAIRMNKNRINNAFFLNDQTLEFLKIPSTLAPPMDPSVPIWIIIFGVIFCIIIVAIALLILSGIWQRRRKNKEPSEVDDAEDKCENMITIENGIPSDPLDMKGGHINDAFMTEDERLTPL
# assay-info: 13C6,15N-isoleucine uptake in CHO cells with doxycycline-inducible expression of human SLC6A19 and TMEM27, RapidFire mass spectrometry (Example B-2)
# Assay type: cell-based
# conditions-used: read-out: SLC6A19_RapidFire Uptake Assay IC50
Quick list: pIC50 per entry.
Units for pIC50: none; it is -log10 of a concentration expressed in mol/L.

Guide cases for pIC50, answers given:
INSERT INTO results (given_smiles, system_under_test, observed) VALUES
  ('CC1(C(=O)NCc2cc3cc(Cl)c(OCc4ccon4)cc3[nH]2)CCC1', 'human SLC6A19 and TMEM27 (Homo sapiens, UniProt Q695T7)', 6.39),
  ('CC1(C(=O)NCc2cc3cc(Cl)c(OCc4ccoc4)cc3[nH]2)CC1', 'human SLC6A19 and TMEM27 (Homo sapiens, UniProt Q695T7)', 7.62),
  ('CC1(C(=O)NCc2cc3cc(Cl)c(OCc4cocn4)cc3[nH]2)CC1', 'human SLC6A19 and TMEM27 (Homo sapiens, UniProt Q695T7)', 7.17),
  ('CC1(C(=O)NCc2cc3cc(Cl)c(OCc4cnsc4)cc3[nH]2)CC1', 'human SLC6A19 and TMEM27 (Homo sapiens, UniProt Q695T7)', 7.11),
  ('CC1(C(=O)NCc2cc3cc(Cl)c(OCc4cccnc4)cc3[nH]2)CC1', 'human SLC6A19 and TMEM27 (Homo sapiens, UniProt Q695T7)', 6.43);

# pIC50 of "Cc1nnc(COc2ccc3cc(CNC(=O)C4(C)CC4)[nH]c3c2)s1" = 5.66

# pIC50 of "CN(Cc1ccccc1)c1ccc2cc(CNC(=O)C3(C)CC3)[nH]c2c1" = 6.00

# pIC50 of "O=C(NCc1cc2cc(Cl)c(OCc3ccon3)cc2[nH]1)C1(C(F)(F)F)CC1" = 7.08

# pIC50 of "CC(=O)NCc1cc2cc(Cl)c(NCc3cscn3)cc2[nH]1" = 6.69

# pIC50 of "CC1(C(=O)NCc2cc3cc(Cl)c(CCn4cccn4)cc3[nH]2)CC1" = 7.29
